Entry source: ChEMBL document CHEMBL1137847

ASSAY_TARGET: GABA-A receptor; anion channel (Homo sapiens) (UniProt P14867+P47870+P18507+P28472+P48169+Q99928+Q9UN88+P34903+O00591+O14764+Q8N1C3+P18505+P78334+P47869+P31644+Q16445)
EXPERIMENTAL_PROTOCOL: Gamma-aminobutyric acid A receptor modulating activity (expressed as biological activity).
Type: protein-complex assay
VALUE_KIND: BA
Number, no unit, nothing else.

[[record]]
smiles_data = "CCCC1(CCC)C(=O)OC[C@H]1NC(=O)OCC"
observed_result = 426

[[record]]
smiles_data = "CCCC1(CCC)C(=O)OC[C@H]1NC(=O)Oc1ccccc1"
observed_result = 330

[[record]]
smiles_data = "CCCC1(CCC)C(=O)OC[C@H]1NC(=O)OCc1ccccc1"
observed_result = 104

[[record]]
smiles_data = "CCCC1(CCC)C(=O)OC[C@H]1NS(=O)(=O)c1ccc(C(F)(F)F)cc1"
observed_result = -44

[[record]]
smiles_data = "CCCC1(CCC)C(=O)OC[C@H]1NS(=O)(=O)c1ccc(Cl)cc1"
observed_result = 23


Reported BA for `O=C1C[C@H](NC(=O)OCc2ccccc2)CO1` : what is it?
47
